# experiment summary: protein stability index of a GFP-peptide fusion (GPS, HEK-293T) (PSI 1-6); higher = more stable;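 note: 24-mer peptide tiles fused after GFP, lentivirally expressed, FACS-sorted into six equal bins by GFP/DsRed ratio, decoded by Illumina sequencing, PSI is the read-weighted mean bin number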
# conditions: treatment: MLN4924 1 uM, 8 h; c terminus: a fixed tail appended
observable: protein stability index
Reply briefly: the number, and no unit.

These solved cases illustrate the format of a correct answer.
| sequence | protein stability index |
| --- | --- |
| MPVICGPEENYPSLQMSSAEMPHT [NANOGP8] | 4.39 |
| KGNLLRHIKLHSGEKPFKCHLCNY [IKZF1] | 2.4 |
| AVLLQLYVATEAILIALVGATPSY [SLC22A15] | 3.26 |
| IEDTPLVPVSFIFIFTFVKKKKIG [PCDHGA10] | 3.12 |
| TFGNSTLALGPGESLPHRLSCLGQ [PLAGL1] | 3.29 |
| TGTKKVTRILDGGNPFLDVPQALS [PSD2] | 3.4 |
| KPSKELKPLLGSAVLGLLLVLAAV [MYORG] | 2.34 |
| NFGFDLLVTYTNRYIIFKRNTLNQ [GMCL1] | 2.47 |
| QGQYETIERLRSLSPKIMQEAFLV [TBC1D10A] | 2.22 |
| AFEFKKPVRPVSRGCLHSHGLQEG [CDC25A] | 2.82 |

// sample SAGVPPSAPLQGAVPPTSSVPPVA [SNAP91] , its protein stability index was 4.82

// sample ANVTLSLDTVEEVLSVSKILHIPQ [KLHL14] , its protein stability index was 2.21

// sample ARHFNYVGDLMGSLAYCLACGGGH [DHCR7] , its protein stability index was 2.68

// sample LEQCSASIEVGGSVNFDGETIEGA [FEM1C] , its protein stability index was 5.14

// sample SRSPLKIVKKPKSMQCKVILLDGS [EPB41L3] , its protein stability index was 2.51
